Tested on: wheat germ agglutinin (Triticum aestivum), Alexa647-labelled
TEST: Alexa647-WGA lectin binding to printed small molecules – biochemical, small-molecule microarray, 635/667 nm fluorescence, artefact control for SMM control-protein annotation, profiling panel (AID 1140);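 further: score merges 667 nm feature emission with signal to noise over triplicate slides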
TEST SETTINGS: WGA-A647 binding, 635 nm fluorescence, higher = more signal
Use 0.5 as the dividing line for composite z-score, with the line itself on the yes side and lower values as no.

Field: example entries. Status: answers known.
{"SMILES TEXT": "COc1cc(CO)cc(I)c1O[C@H]1C=C(C(=O)NCCO)C[C@@H](N(CCc2cccc(F)c2)C(=O)CCC2CCCC2)[C@@H]1O", "QUALITATIVE LABEL": "yes"}
{"SMILES TEXT": "COc1ccc(C#Cc2ccc3c(c2)[C@]2(C(=O)N3)[C@H](C(=O)N3CCc4cc(OC)c(OC)cc4C3)[C@H]3C(=O)O[C@H](c4ccccc4)[C@H](c4ccccc4)N3[C@@H]2c2ccc(OCCO)cc2)cc1", "QUALITATIVE LABEL": "yes"}
{"SMILES TEXT": "C=C(/C(=C/C[C@@H](OC(C)=O)c1ccc(CO)o1)c1cnc2ccccc2c1)C(C)C", "QUALITATIVE LABEL": "no"}
{"SMILES TEXT": "CN(C)CCCN1C(=O)[C@@]2(c3ccc([N+](=O)[O-])cc3)CC(=O)N(C3CCCCC3)[C@@H]2c2ccc(CO)cc21", "QUALITATIVE LABEL": "no"}
{"SMILES TEXT": "C[N+](C)(C)CCCC[C@@H]1NC(=O)[C@@H]2C[C@H](C(=O)NCCCCCCNC(=O)CS)[C@H](c3cccc(OCCO)c3)N2C1=O", "QUALITATIVE LABEL": "yes"}

Continue with the next molecule.
Query string: Identify whether the reported composite z-score of the following molecule is 0.5 or greater: C=CCN1C(=O)[C@@]2(O[C@@H](CCO)[C@H]([Si](C)(C)c3ccc(OC)cc3)[C@H]2C)c2cc(NC(C)=O)ccc21
Result string: yes

Hello, the source for this data is PubChem BioAssay, in case you need it.
